- protocol-description: Drug uptake in tumor of CD1 nu/nu mouse xenografted with human A431 cells transfected with CCK2R at 0.5 MBq after 4 hrs using 177Lu labeled compound by Cobra-2 gamma counter method relative to control
- Assay type: ADME, tissue-based, Neoplasm
*1 amine or outer side, *2 acyl side, *3 side chain or, on linkers, in order; H or OH if unused. Where a SMILES comes first, the peptide text is derived from it. [ ]: non-standard residue; d: D form. The star is where a group is joined. X2 = CCCC[C@@H](C(=O)[*:2])n1cc([C@H](Cc2c[nH]c3ccccc23)N[*:1])nn1; X4 = C[C@H](N[*:1])c1cn([C@@H](Cc2ccc(O)cc2)C(=O)[*:2])nn1; DOTA = O=C(O)CN1CCN(CC(=O)O)CCN(CC(=O)*)CCN(CC(=O)O)CC1; X3 = O=C([C@H](Cc1c[nH]c2ccccc12)n1cc(CN[*:1])nn1)[*:2]; X5 = C[C@@H](C(=O)[*:2])n1cc([C@@H](CCC(=O)O)N[*:1])nn1; X1 = O=C(Cn1cc([C@H](Cc2ccc(O)cc2)N[*:1])nn1)[*:2]; Nle = CCCC[C@H](N)C(=O)O
readout-kind: Drug uptake

Recorded results for 5 compounds are shown here.
compound	reported-result
CCCC[C@H](NC(=O)[C@H](Cc1c[nH]c2ccccc12)NC(=O)CNC(=O)[C@H](Cc1ccc(O)cc1)NC(=O)[C@H](C)NC(=O)[C@@H](CCC(=O)O)NC(=O)CN1CCN(CC(=O)O)CCN(CC(=O)O)CCN(CC(=O)O)CC1)C(=O)N[C@@H](CC(=O)O)C(=O)N[C@@H](Cc1ccccc1)C(N)=O ({DOTA}-[dE]AYGW[Nle]DF-NH2)	1.48 % ID/g
CCCC[C@H](NC(=O)[C@H](Cc1c[nH]c2ccccc12)NC(=O)CNC(=O)[C@H](Cc1ccc(O)cc1)n1cc([C@H](C)NC(=O)[C@@H](CCC(=O)O)NC(=O)CN2CCN(CC(=O)O)CCN(CC(=O)O)CCN(CC(=O)O)CC2)nn1)C(=O)N[C@@H](CC(=O)O)C(=O)N[C@@H](Cc1ccccc1)C(N)=O ({DOTA}-[dE][X4]GW[Nle]DF-NH2)	Active
CCCC[C@H](NC(=O)[C@H](Cc1c[nH]c2ccccc12)NC(=O)Cn1cc([C@H](Cc2ccc(O)cc2)NC(=O)[C@H](C)NC(=O)[C@@H](CCC(=O)O)NC(=O)CN2CCN(CC(=O)O)CCN(CC(=O)O)CCN(CC(=O)O)CC2)nn1)C(=O)N[C@@H](CC(=O)O)C(=O)N[C@@H](Cc1ccccc1)C(N)=O ({DOTA}-[dE]A[X1]W[Nle]DF-NH2)	3.91 % ID/g
CCCC[C@H](NC(=O)[C@H](Cc1c[nH]c2ccccc12)NC(=O)CNC(=O)[C@H](Cc1ccc(O)cc1)NC(=O)[C@H](C)n1cc([C@@H](CCC(=O)O)NC(=O)CN2CCN(CC(=O)O)CCN(CC(=O)O)CCN(CC(=O)O)CC2)nn1)C(=O)N[C@@H](CC(=O)O)C(=O)N[C@@H](Cc1ccccc1)C(N)=O ({DOTA}-[X5]YGW[Nle]DF-NH2)	Active
CCCC[C@H](NC(=O)[C@H](Cc1c[nH]c2ccccc12)NC(=O)CNC(=O)[C@H](Cc1ccc(O)cc1)NC(=O)[C@H](C)NC(=O)[C@@H](CCC(=O)O)NC(=O)CN1CCN(CC(=O)O)CCN(CC(=O)O)CCN(CC(=O)O)CC1)c1cn([C@@H](CC(=O)O)C(=O)N[C@@H](Cc2ccccc2)C(N)=O)nn1	Active

Ask: Answer with the recorded Drug uptake for the compound listed here: CCCC[C@@H](C(=O)N[C@@H](CC(=O)O)C(=O)N[C@@H](Cc1ccccc1)C(N)=O)n1cc([C@H](Cc2c[nH]c3ccccc23)NC(=O)CNC(=O)[C@H](Cc2ccc(O)cc2)NC(=O)[C@H](C)NC(=O)[C@@H](CCC(=O)O)NC(=O)CN2CCN(CC(=O)O)CCN(CC(=O)O)CCN(CC(=O)O)CC2)nn1 ({DOTA}-[dE]AYG[X2]DF-NH2)
Reply: Active

Ask: Answer with the recorded Drug uptake for the compound listed here: CCCC[C@H](NC(=O)[C@H](Cc1c[nH]c2ccccc12)n1cc(CNC(=O)[C@H](Cc2ccc(O)cc2)NC(=O)[C@H](C)NC(=O)[C@@H](CCC(=O)O)NC(=O)CN2CCN(CC(=O)O)CCN(CC(=O)O)CCN(CC(=O)O)CC2)nn1)C(=O)N[C@@H](CC(=O)O)C(=O)N[C@@H](Cc1ccccc1)C(N)=O ({DOTA}-[dE]AY[X3][Nle]DF-NH2)
Reply: Active
